target: receptor binding domain (RBD) of the S1-subunit of SARS-CoV-2 glycoprotein S (UniProt P0DTC2 319-541); assay: flow
Provide the reported pIC50 of each item.
Value format note: pIC50 is -log10 of concentration (mol/L); just state the number.

Form field: reported pIC50 of STE72-1B6 (antibody, V domains shown) VH: QVKLVQSGGGLVQPGGSLRLSCAASGFTFSSYAMSWVRQAPGKGLEWVSGISGSGGSTYYADSVKGRFTISRDNSKNTLYLQVNSLRAEDTAVYYCAKAPYGDFRGLWYFDYWGQGTLVTVSS VL: DIVMTQSPFSVSASVGDRVTISCRASQDIRSWLAWYQQKPGKAPQLLIYDASSLQSGVPSRFSGSGSGTDFTLTISSLQPEDFATYYCQQADSVPLTFGGGTKVEIQ
8.32

Form field: reported pIC50 of STE72-2G4 (antibody, V domains shown) VH: QVQLVQSGAEVKKPGASVKVSCKASGYTFTSYGISWVRQAPGQGLEWMGWISAYNGNTNYAQKLQGRVTMTTDTSTSTAYMELRSLRSDDTAVYYCARFFYDSSGYSTDYWGQGTLVTVSS VL: ETTLTQSPAFMSVTPGDRAILSCRASQSVDSHLAWYHQKPGQPPRLLIYGASTRATGIPARFSGSRSGTEFTLTISGLQSEDLGVYYCQQYASWPPGYNFGQGTKLEIK
8.43

Form field: reported pIC50 of STE70-1E12 (antibody, V domains shown) VH: QMQLVQSGAEVKKPGASVKVSCKASGYTFTGYYMHWVRQAPGQGLEWMGRINPNSGGTNYAQKFQGRVTMTRDTSTSTAYMELSRLRSDDTAVYYCVRDGYNFNNWFDPWGQGTLVTVSS VL: NFMLTQPHSVSGSPGETITISCTGSGGSIASNYVQWYRQRPGSAPTIVIYEDTQRPSGVPDRFSGSIDSSSNSASLTISGLKTEDEADYYCQSSESTNHVMFGGGSKLTVL
8.49

Form field: reported pIC50 of STE72-8A6 (antibody, V domains shown) VH: QVQLVQSGAEVKKPGASVKVSCKASGYTFTSYGISWVRQAPGQGLEWMGWISAYNGNTNYAQKLQGRVTMTTDTSTSTAYMELRSLRSDDTAVYYCARFFYDSSGYSTDYWGQGTLVTVSS VL: DIVMTQSPSTLSASVGDRVTISCRASQNIGTWLAWYQQKPGKAPKLLISKASSLESGVPSRFSGSGSGTDFTLTISSLQPDDFATYYCQQYDSYLFTFGQGTKLEIR
8.55
